- conditionLabel: in n-butanol, 308.15 K
reportedEndpoint: solubility (mole fraction)

smilesEntry	reportedEndpoint	resultNumber
CC(=O)Oc1ccc(C(c2ccc(OC(C)=O)cc2)c2ccccn2)cc1	solubility (mole fraction)	0.00128

====

- conditionLabel: in n-propanol, 303.15 K
reportedEndpoint: solubility (mole fraction)

smilesEntry	resultNumber
CC(=O)Oc1ccc(C(c2ccc(OC(C)=O)cc2)c2ccccn2)cc1	0.00102

====

- conditionLabel: in NMP, 293.15 K

smilesEntry	solubility (mole fraction)
CC(=O)Oc1ccc(C(c2ccc(OC(C)=O)cc2)c2ccccn2)cc1	0.0703

====

- conditionLabel: in DMF, 298.15 K
reportedEndpoint: solubility (mole fraction)

smilesEntry	reportedEndpoint	resultNumber
CC(=O)Oc1ccc(C(c2ccc(OC(C)=O)cc2)c2ccccn2)cc1	solubility (mole fraction)	0.0492

====

- conditionLabel: in transcutol, 308.15 K

smilesEntry	solubility (mole fraction)
CC(=O)Oc1ccc(C(c2ccc(OC(C)=O)cc2)c2ccccn2)cc1	0.0156

====

- conditionLabel: in n-butanol, 288.15 K
reportedEndpoint: solubility (mole fraction)

smilesEntry	reportedEndpoint	resultNumber
CC(=O)Oc1ccc(C(c2ccc(OC(C)=O)cc2)c2ccccn2)cc1	solubility (mole fraction)	0.000393

====

- conditionLabel: in n-propanol, 288.15 K

smilesEntry	solubility (mole fraction)
CC(=O)Oc1ccc(C(c2ccc(OC(C)=O)cc2)c2ccccn2)cc1	0.000462

====

- conditionLabel: in acetone, 303.15 K
reportedEndpoint: solubility (mole fraction)

smilesEntry	resultNumber
CC(=O)Oc1ccc(C(c2ccc(OC(C)=O)cc2)c2ccccn2)cc1	0.0231

====

- conditionLabel: in DMAc, 288.15 K
reportedEndpoint: solubility (mole fraction)

smilesEntry	reportedEndpoint	resultNumber
CC(=O)Oc1ccc(C(c2ccc(OC(C)=O)cc2)c2ccccn2)cc1	solubility (mole fraction)	0.0391

====

- conditionLabel: in ethanol, 303.15 K
reportedEndpoint: solubility (mole fraction)

smilesEntry	resultNumber
CC(=O)Oc1ccc(C(c2ccc(OC(C)=O)cc2)c2ccccn2)cc1	0.00113

====

- conditionLabel: in isopropanol, 293.15 K
reportedEndpoint: solubility (mole fraction)

smilesEntry	resultNumber
CC(=O)Oc1ccc(C(c2ccc(OC(C)=O)cc2)c2ccccn2)cc1	0.000327

====

- conditionLabel: in water, 303.15 K
reportedEndpoint: solubility (mole fraction)

smilesEntry	resultNumber
CC(=O)Oc1ccc(C(c2ccc(OC(C)=O)cc2)c2ccccn2)cc1	2.14e-07

====

- conditionLabel: in DMAc, 308.15 K
reportedEndpoint: solubility (mole fraction)

smilesEntry	reportedEndpoint	resultNumber
CC(=O)Oc1ccc(C(c2ccc(OC(C)=O)cc2)c2ccccn2)cc1	solubility (mole fraction)	0.0659

====

- conditionLabel: in NMP, 308.15 K
reportedEndpoint: solubility (mole fraction)

smilesEntry	reportedEndpoint	resultNumber
CC(=O)Oc1ccc(C(c2ccc(OC(C)=O)cc2)c2ccccn2)cc1	solubility (mole fraction)	0.0909

====

- conditionLabel: in transcutol, 303.15 K

smilesEntry	solubility (mole fraction)
CC(=O)Oc1ccc(C(c2ccc(OC(C)=O)cc2)c2ccccn2)cc1	0.0131

====

- conditionLabel: in acetonitrile, 308.15 K

smilesEntry	solubility (mole fraction)
CC(=O)Oc1ccc(C(c2ccc(OC(C)=O)cc2)c2ccccn2)cc1	0.0229

====

- conditionLabel: in acetonitrile, 293.15 K

smilesEntry	solubility (mole fraction)
CC(=O)Oc1ccc(C(c2ccc(OC(C)=O)cc2)c2ccccn2)cc1	0.0135

====

- conditionLabel: in n-butanol, 298.15 K

smilesEntry	solubility (mole fraction)
CC(=O)Oc1ccc(C(c2ccc(OC(C)=O)cc2)c2ccccn2)cc1	0.000719

====

- conditionLabel: in NMP, 303.15 K

smilesEntry	solubility (mole fraction)
CC(=O)Oc1ccc(C(c2ccc(OC(C)=O)cc2)c2ccccn2)cc1	0.0837

====

- conditionLabel: in DMAc, 303.15 K
reportedEndpoint: solubility (mole fraction)

smilesEntry	resultNumber
CC(=O)Oc1ccc(C(c2ccc(OC(C)=O)cc2)c2ccccn2)cc1	0.0583

====

- conditionLabel: in water, 288.15 K

smilesEntry	solubility (mole fraction)
CC(=O)Oc1ccc(C(c2ccc(OC(C)=O)cc2)c2ccccn2)cc1	1.32e-07

====

- conditionLabel: in DMAc, 293.15 K
reportedEndpoint: solubility (mole fraction)

smilesEntry	reportedEndpoint	resultNumber
CC(=O)Oc1ccc(C(c2ccc(OC(C)=O)cc2)c2ccccn2)cc1	solubility (mole fraction)	0.0448

====

- conditionLabel: in methanol, 303.15 K

smilesEntry	solubility (mole fraction)
CC(=O)Oc1ccc(C(c2ccc(OC(C)=O)cc2)c2ccccn2)cc1	0.00196

====

- conditionLabel: in DMF, 288.15 K

smilesEntry	solubility (mole fraction)
CC(=O)Oc1ccc(C(c2ccc(OC(C)=O)cc2)c2ccccn2)cc1	0.0372

====

- conditionLabel: in PEG-400, 303.15 K

smilesEntry	solubility (mole fraction)
CC(=O)Oc1ccc(C(c2ccc(OC(C)=O)cc2)c2ccccn2)cc1	0.0206

====

- conditionLabel: in acetone, 298.15 K

smilesEntry	solubility (mole fraction)
CC(=O)Oc1ccc(C(c2ccc(OC(C)=O)cc2)c2ccccn2)cc1	0.0189

====

- conditionLabel: in acetonitrile, 288.15 K
reportedEndpoint: solubility (mole fraction)

smilesEntry	resultNumber
CC(=O)Oc1ccc(C(c2ccc(OC(C)=O)cc2)c2ccccn2)cc1	0.0112

====

- conditionLabel: in acetone, 293.15 K

smilesEntry	solubility (mole fraction)
CC(=O)Oc1ccc(C(c2ccc(OC(C)=O)cc2)c2ccccn2)cc1	0.0154

====

- conditionLabel: in NMP, 288.15 K

smilesEntry	solubility (mole fraction)
CC(=O)Oc1ccc(C(c2ccc(OC(C)=O)cc2)c2ccccn2)cc1	0.0643

====

- conditionLabel: in PEG-400, 288.15 K

smilesEntry	solubility (mole fraction)
CC(=O)Oc1ccc(C(c2ccc(OC(C)=O)cc2)c2ccccn2)cc1	0.0132

====

- conditionLabel: in PEG-400, 298.15 K

smilesEntry	solubility (mole fraction)
CC(=O)Oc1ccc(C(c2ccc(OC(C)=O)cc2)c2ccccn2)cc1	0.0179
